# Assay Protocol: Inhibition of porcine serum BAO using [7-14C]-benzylamine as substrate preincubated for 30 mins followed by substrate addition
# Parameters: species or system Sus scrofa
pIC50: −log10 of the molar value.
Give TRUE when the value for pIC50 is at least 5. Give FALSE when it is less.

// query pIC50 >= 5 for "CCCCOc1cccc(OCCCC)c1CN.Cl" ?
// result TRUE

// query Determine whether this compound has pIC50 no lower than 5: "Cl.NCc1c(OCCCO)cccc1OCCCO"
// result TRUE

// query Entry "CCCc1cccc(CCC)c1CN.Cl" : is its pIC50 no less than 5?
// result FALSE

// query Is it the case that "COc1cccc(OC)c1CN.Cl" has pIC50 reaching or exceeding 5?
// result FALSE

// query Assess whether reported pIC50 for "CCOc1ccccc1CN" sits at 5 or higher.
// result FALSE

// query Determine whether this compound has pIC50 no lower than 5: "COCc1cccc(COC)c1CN.Cl"
// result FALSE

---
// query I'd appreciate it if you could say whether "CC(C)Oc1cccc(OC(C)C)c1CN" has pIC50 at least equal to 5.
// result FALSE

// query Is it the case that "CCOc1cccc(OCC)c1CN.Cl" has pIC50 reaching or exceeding 5?
// result TRUE

// query hey, is pIC50 for this one >= 5? "NCc1ccccc1O"
// result FALSE
